# tgt: T1, recombinant HLA-DQ8/gliadin peptide (human)
# T1 chain 1: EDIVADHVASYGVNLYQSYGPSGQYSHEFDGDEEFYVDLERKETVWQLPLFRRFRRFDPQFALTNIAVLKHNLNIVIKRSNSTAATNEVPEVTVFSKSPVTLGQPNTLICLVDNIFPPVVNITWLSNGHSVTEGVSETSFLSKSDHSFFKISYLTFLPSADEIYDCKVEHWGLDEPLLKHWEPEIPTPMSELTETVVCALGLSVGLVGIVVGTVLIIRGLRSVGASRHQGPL
# T1 chain 2: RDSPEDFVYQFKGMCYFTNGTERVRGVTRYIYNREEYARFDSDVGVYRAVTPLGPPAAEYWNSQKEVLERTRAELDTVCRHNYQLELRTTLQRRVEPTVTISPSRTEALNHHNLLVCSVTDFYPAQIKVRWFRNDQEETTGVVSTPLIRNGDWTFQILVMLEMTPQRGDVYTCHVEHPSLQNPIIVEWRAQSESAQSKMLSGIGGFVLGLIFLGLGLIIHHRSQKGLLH
# assay text: SPR Biacore T200, 37 C, pH 7.4; antibody captured by anti-human Fc, pMHC injected; 1:1 model
Exercise: state measured koff for each of the binders provided.
Please respond with the number in s⁻¹ and leave the unit unwritten.

What value of koff has been reported for the following binder? DQN0157 (antibody, human IgG1, kappa, V domains shown, Rabbit variable regions with F1332m and hkOMC constant regions; also called DQN0157cc) VH: QSLEESGGDLVKPGASLTLTCTASGFSFSSSYYMCWVRQAPGKGLEWIACIYTGSSGSTYYPSWAKGRFTISKTSSTTVTLQMTSLTAADTATYFCARVRAGSGYYYFNLWGPGTLVTVSS VL: DIVMTQTPSSVSAAVGGTVTIKCQASQTIYSGLAWYQQKPGQPPKLLIYDASDLASGVPSRFSGSGSGTEFTLAISGVQCDDAATYYCHGDYYGGSGTFFWTFGGGTKVEIKR 0.0033

What value of koff has been reported for the following binder? DQN0100 (antibody, human IgG1, kappa, V domains shown, Rabbit variable regions with F1332m and hkOMC constant regions; also called DQN0100aa) VH: QQQLEESGGGLVKPGASLTLTCKGSGFSFTSGYWICWVRQAPGKGLEWIGCIYTGSSGSTYYASWAKGRFTISRSSTTVTLQMTSLTVADTATYFCAGDPSGASSGWDNLWGPGTLVTVSS VL: AFELTQTPSSVEAAVGGTVTIKCQASQTIVSWLAWYQQKPGQRPKLLILYASNLASGVSSRFRGSGSGTDYTLTISDLECDDAATYYCQSYYFSTSSPDMYAFGGGTKVEIKR 0.000458

What value of koff has been reported for the following binder? DQN0092 (antibody, human IgG1, kappa, V domains shown, Rabbit variable regions with F1332m and hkOMC constant regions; also called DQN0092hh) VH: QSVEESGGRLVTPGTPLTLTCTVSGFSLSSYYISWVRQAPGKGLEWIGIIYTDGVTDYPNWAKGRFTISKTSTTVDLKITSPTTEDTATYFCARDAASVYGCGYFDLWGPGTLVTVSS VL: TFKLTQTPASVEAAVGGTVTIKCQASESNGNALAWYQQKPGQPPKLLIYRAFTLASGVPSRLKGSGSGTQFALTISDLECADAATYYCQTYYGSNTDFNAFGGGTKVEIKR 0.00122

What value of koff has been reported for the following binder? DQN0177 (antibody, human IgG1, kappa, V domains shown, also called DQN0177aa) VH: QSVEESGGRLVTPGTPLTLTCTVSGFSLSSYAMSWVRQAPGKGLEWIGVISYSGRTYDASWAKGRFTISKTSTTVDLKITSPTTEDTATYFCARVGDSYGYAYATVIFTYHFNLWGPGTLVTVSS VL: DPVLTQTPSSASEPVGGTVTIKCQASESISSSLAWYQQKPGQRPKLLIYDASKLASGVPSRFKGSGSGTEFTLTISGVQCDDAATYYCQHGLSSGSTNRCAFGGGTKVEIKR 0.00137
